These measurements were taken from patent US20190359723A1.

system_tested: T1, IL-13RA2 huFc (human)
T1 construct: Expressed in 293F cells, purified on protein A; also called human IL13RA2; recombinant IL-13RA2
assay_text: Biacore, induced supernatant of the scFv clone; parent 31C2
# fold lower dissociation constant Kd than the parent clone per record follows

Briefly, fold lower dissociation constant Kd than the parent clone measured for 2D4 (scFv) (scFv, also called clone 2D4) scFv: EVQLLESGGGLVQPGGSLRLSCAASGFTFRKYAMGWVRQAPGKGLEWVSGISGSVGSTYYADSVKGRFTISRDNSKNTLYLQMNSLRAEDTAVYYCAKVRYGWGAGAFDYWGQGTLVTVSSGGGGSGGGGSGGGGSDIQMTQSPSTLSASVGDRVTITCRASQSISSWLAWYQQKPGKAPKLLIYDASSLESGVPSRFSGSGSGTEFTLTISSLQPDDFATYYCQQYDTYPPITFGQGTKVEIK : > 10 times

Further cases:
Briefly, fold lower dissociation constant Kd than the parent clone measured for 2A5 (scFv) (scFv, also called clone 2A5) scFv: EVQLLESGGGLVQPGGSLRLSCAASGFTFSRYAMNWVRQAPGKGLEWVSAISASGGGTYYADSVKGRFTISRDNSKNTLYLQMNSLRAEDTAVYYCAKVRYGWGAGAFDYWGQGTLVTVSSGGGGSGGGGSGGGGSDIQMTQSPSTLSASVGDRVTITCRASQSISSWLAWYQQKPGKAPKLLIYDASSLESGVPSRFSGSGSGTEFTLTISSLQPDDFATYYCQQYDTYPPITFGQGTKVEIK : > 10 times

Briefly, fold lower dissociation constant Kd than the parent clone measured for 2C7 (scFv) (scFv, also called clone 2C7) scFv: EVQLLESGGGLVQPGGSLRLSCAASGFTFKLPAMSWVRQAPGKGLEWVSAITGSGGSTYYADSVKGRFTISRDNSKNTLYLQMNSLRAEDTAVYYCAKVRYGWGAGAFDYWGQGTLVTVSSGGGGSGGGGSGGGGSDIQMTQSPSTLSASVGDRVTITCRASQSISSWLAWYQQKPGKAPKLLIYDASSLESGVPSRFSGSGSGTEFTLTISSLQPDDFATYYCQQYDTYPPITFGQGTKVEIK : 10 times
